Origin of the recorded values: PubChem BioAssay (NCI)

- Tested on: UACC-62 melanoma
- EXPERIMENTAL_PROTOCOL: NCI tumour cell line growth inhibition, 48 h; in the data active = GI50 below about 0.43 µM; inactive = the rest
A correct response names exactly one class from yes = active, no = inactive

COMPOUND: O=C(Nc1ccc(Oc2cccc(Cl)c2)c(Cl)c1)c1cnccn1
TARGET_UNDER_TEST: UACC-62 melanoma
ASSIGNED_CATEGORY: yes
//
COMPOUND: Nc1c(C(=O)Nc2ccccn2)sc2nc3c(cc12)CCCCC3
TARGET_UNDER_TEST: UACC-62 melanoma
ASSIGNED_CATEGORY: no

# next compound below
-- ask Test call for this compound, please: COc1cc(OC)cc(C2C(C#N)=C(N)Oc3c2ccc2ccc(O)cc32)c1 (stereo not drawn)
-- reply no
